Data provenance: patent US9732075B2

biological target: human orexin-1 receptor (Homo sapiens (Human)); experiment: In vitro assay: intracellular calcium measurements (FLIPR), antagonistic activity; format: cell-based; conditions: CHO cells expressing human orexin-1 receptor, orexin-A agonist, geometric mean, read-out: IC50 Ox1
Sequence (O43613 whole entry): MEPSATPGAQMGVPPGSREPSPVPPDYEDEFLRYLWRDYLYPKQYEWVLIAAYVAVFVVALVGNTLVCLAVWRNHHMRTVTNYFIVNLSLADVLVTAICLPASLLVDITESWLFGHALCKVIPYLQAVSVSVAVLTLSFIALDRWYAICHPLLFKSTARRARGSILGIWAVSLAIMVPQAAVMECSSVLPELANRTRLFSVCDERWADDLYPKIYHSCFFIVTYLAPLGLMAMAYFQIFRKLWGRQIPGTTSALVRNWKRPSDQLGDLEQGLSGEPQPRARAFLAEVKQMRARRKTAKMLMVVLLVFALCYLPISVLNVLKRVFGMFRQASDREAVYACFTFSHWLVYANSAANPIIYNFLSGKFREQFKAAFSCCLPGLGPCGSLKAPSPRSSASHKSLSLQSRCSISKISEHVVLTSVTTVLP
pIC50: −log10 of the molar value.
MEASUREMENT NAME: pIC50

Check out these entries, answers already filled in.
COMPOUND: C=C1C[C@@H](c2nc3cc(C(C)(C)C)ccc3[nH]2)N(C(=O)c2cc(OC)c(OC)cc2-n2nccn2)C1 [Ex. 6.170]
EXPERIMENTAL SYSTEM: human orexin-1 receptor (Homo sapiens (Human))
pIC50: 7.74
--
COMPOUND: Cc1ccc(-c2cccc(F)c2)c(C(=O)N2CCC[C@@]2(C)c2nc3cc(C)c(C)cc3n2CCF)c1 [Ex. 7.35]
EXPERIMENTAL SYSTEM: human orexin-1 receptor (Homo sapiens (Human))
pIC50: 8.22

P: COc1ccc2nc([C@@H]3CCCN3C(=O)c3cnc(C)nc3-c3cccc(Cl)c3)[nH]c2c1 [Ex. 1.29]
Q: C=C1CN(C(=O)c2nc(C)sc2-c2ccc(Cl)cc2)C(C)(c2nc3cc(OC)ccc3[nH]2)C1 (racemic) [Ex. 6.146]
R: Cc1nc(C(=O)N2CC[C@H](C)[C@H]2c2nc3ccccc3[nH]2)c(-c2cccc(Cl)c2)s1 [Ex. 4.6]
Input line: Sort the compounds on pIC50; start with the lowest figure. Form entry: labels listed in requested order.
Output line: P, R, Q
(P: 6.43, R: 7.54, Q: 7.80)

* * *

target: human orexin-2 receptor (Homo sapiens (Human)); assay: In vitro assay: intracellular calcium measurements (FLIPR), antagonistic activity; conditions: CHO cells expressing human orexin-2 receptor, orexin-A agonist, geometric mean, read-out: IC50 Ox2
Sequence (O43614 whole entry): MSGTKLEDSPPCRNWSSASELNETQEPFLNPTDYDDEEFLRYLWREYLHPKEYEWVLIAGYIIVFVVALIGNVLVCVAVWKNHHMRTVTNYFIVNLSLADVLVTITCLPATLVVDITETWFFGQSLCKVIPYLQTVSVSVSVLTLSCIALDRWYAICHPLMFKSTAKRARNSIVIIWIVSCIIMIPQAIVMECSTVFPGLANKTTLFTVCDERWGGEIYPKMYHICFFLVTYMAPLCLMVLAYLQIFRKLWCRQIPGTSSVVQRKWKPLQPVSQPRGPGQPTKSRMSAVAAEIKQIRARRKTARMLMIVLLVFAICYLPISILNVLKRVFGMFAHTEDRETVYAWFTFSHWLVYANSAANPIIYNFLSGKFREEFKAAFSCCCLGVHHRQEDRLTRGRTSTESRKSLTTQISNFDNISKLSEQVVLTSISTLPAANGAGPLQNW
pIC50: −log10 of the molar value.
MEASUREMENT NAME: pIC50

Solved cases below.
SMILES RECORD: Cc1nc(C(=O)N2CCC[C@H]2c2nc3cc(Cl)ccc3[nH]2)c(-c2cccc(Cl)c2)s1
EXPERIMENTAL SYSTEM: human orexin-2 receptor (Homo sapiens (Human))
pIC50: 6.61

SMILES RECORD: C=C1C[C@@H](c2nc3c(C)c(C)ccc3[nH]2)N(C(=O)c2cc(C)ccc2-n2nccn2)C1
EXPERIMENTAL SYSTEM: human orexin-2 receptor (Homo sapiens (Human))
pIC50: 8.52

SMILES RECORD: Cc1nc(C(=O)N2CC[C@H](C)[C@H]2c2nc3cc(C(F)(F)F)ccc3[nH]2)c(-c2cc(F)cc(F)c2)s1
EXPERIMENTAL SYSTEM: human orexin-2 receptor (Homo sapiens (Human))
pIC50: 5.50

SMILES RECORD: C=C1C[C@@H](c2nc3c(OC)ccc(OC)c3[nH]2)N(C(=O)c2cc(C)ccc2-n2nccn2)C1
EXPERIMENTAL SYSTEM: human orexin-2 receptor (Homo sapiens (Human))
pIC50: 7.21

SMILES RECORD: Cc1cccc(-c2ccc(C)cc2C(=O)N2CCC[C@@]2(C)c2nc3cc(C)c(C)cc3[nH]2)c1
EXPERIMENTAL SYSTEM: human orexin-2 receptor (Homo sapiens (Human))
pIC50: 7.96

I: Cc1ccc(-c2ccccc2C(=O)N2CC[C@H](C)[C@H]2c2nc3cc(C)c(C)cc3[nH]2)cc1
II: Cc1c(Cl)ccc2[nH]c([C@]3(C)CCCN3C(=O)c3c(F)cccc3-c3ncccn3)nc12
Input line: Compare I and II by numeric pIC50 and name the larger one. Please respond with the label that marks your chosen entry.
Output line: II
